- experiment notes: chemical genetic growth profiling, strain panel (AID 1159580);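 note: tested at 20 µM; growth read once vehicle control cultures reached saturation at 30 °C; lower values mean less growth of the strain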
- reported conditions: S. cerevisiae deletion strains, growth OD, locus YJR075W, strain HOC1
The campaign covered roughly 5,500 compounds. About 2,000 (36%) were called active. Not shown: some 18% with an inconclusive outcome. Cut-off read from the data, not from the text of the source: active = normalized growth mostly below about 0.91 (no sharp cut-off); inconclusive = no clear call, values can overlap the other calls; inactive = mostly above about 0.92. This is one part of the list.
// classify into True = active, False = inactive

Challenge: Please state the recorded outcome for this compound: COC(=O)/C(C)=C\CC12OC(C)(C)C3CC(C=C4C(=O)c5c(OC)c6c(c(CC=C(C)C)c5OC431)OC(C)(CCC=C(C)C)C=C6)C2=O (configuration not stated)
Response given: False

Challenge: Please state the recorded outcome for this compound: CC(=O)OC1CC(O)C(C)(C)C2CC(=O)C3(C)C(CCC4(C)C(c5ccoc5)OC(=O)C5OC543)C12C (configuration not stated)
Response given: False

Challenge: Please state the recorded outcome for this compound: `NCCCNCCSP(=O)(O)O`
Response given: False

Challenge: Please state the recorded outcome for this compound: CN[C@@H]1C(OC2[C@H](O[C@H]3[C@H](O)[C@@H](O)[C@H](N=C(N)N)[C@@H](O)[C@@H]3N=C(N)N)OC(C)[C@]2(O)CO)OC(CO)C(O)C1O (some centres not stated)
Response given: False

Challenge: Please state the recorded outcome for this compound: Clc1ccc(C(c2ccc(Cl)cc2)n2cc[n+](CC(OCc3ccc(Cl)cc3Cl)c3ccc(Cl)cc3Cl)c2)cc1 (configuration not stated)
Response given: True

Challenge: Please state the recorded outcome for this compound: O=C(O)CCC1NCC2CC1CN1CCCCC21 (configuration not stated)
Response given: False

Challenge: Please state the recorded outcome for this compound: CNc1ccc(C(=O)CC(O)CCC(C)C2OC(=O)CC(O)CC(=O)CC(O)CC(O)CC(O)CC(O)CC3(O)CC(O)C(C(=O)OC)C(CC(OC4OC(C)C(O)C(N)C4O)/C=C/C=C/C=C/C=C/C=C/C=C/C=C/C2C)O3)cc1 (configuration not stated)
Response given: True
